Target: Cytochrome P450 2A6 (Homo sapiens, UniProt P11509)
Sequence (P11509 whole entry): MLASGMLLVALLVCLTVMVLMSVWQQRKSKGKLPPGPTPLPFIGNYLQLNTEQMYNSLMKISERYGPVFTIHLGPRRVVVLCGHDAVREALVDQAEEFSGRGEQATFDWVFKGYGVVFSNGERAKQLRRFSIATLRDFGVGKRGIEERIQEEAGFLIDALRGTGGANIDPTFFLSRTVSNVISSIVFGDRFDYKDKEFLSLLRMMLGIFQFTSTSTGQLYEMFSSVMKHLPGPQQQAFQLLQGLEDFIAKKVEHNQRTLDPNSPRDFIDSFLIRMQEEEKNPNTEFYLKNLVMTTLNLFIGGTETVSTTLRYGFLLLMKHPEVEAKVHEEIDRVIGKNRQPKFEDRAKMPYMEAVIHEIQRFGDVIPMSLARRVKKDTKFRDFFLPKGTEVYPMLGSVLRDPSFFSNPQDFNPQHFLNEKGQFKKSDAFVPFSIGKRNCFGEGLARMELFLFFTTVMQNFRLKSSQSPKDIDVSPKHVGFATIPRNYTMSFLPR
QUANTITY: IC50

Ask: Query: IC50; subject: O=C1NCc2nc(-c3c(F)cccc3F)cc(Nc3ccc(C(=O)N4CCCC4)cc3)c21
Reply: > 30 µM

---

Target: Cytochrome P450 1A2 (Homo sapiens, UniProt P05177)
Sequence (P05177 whole entry): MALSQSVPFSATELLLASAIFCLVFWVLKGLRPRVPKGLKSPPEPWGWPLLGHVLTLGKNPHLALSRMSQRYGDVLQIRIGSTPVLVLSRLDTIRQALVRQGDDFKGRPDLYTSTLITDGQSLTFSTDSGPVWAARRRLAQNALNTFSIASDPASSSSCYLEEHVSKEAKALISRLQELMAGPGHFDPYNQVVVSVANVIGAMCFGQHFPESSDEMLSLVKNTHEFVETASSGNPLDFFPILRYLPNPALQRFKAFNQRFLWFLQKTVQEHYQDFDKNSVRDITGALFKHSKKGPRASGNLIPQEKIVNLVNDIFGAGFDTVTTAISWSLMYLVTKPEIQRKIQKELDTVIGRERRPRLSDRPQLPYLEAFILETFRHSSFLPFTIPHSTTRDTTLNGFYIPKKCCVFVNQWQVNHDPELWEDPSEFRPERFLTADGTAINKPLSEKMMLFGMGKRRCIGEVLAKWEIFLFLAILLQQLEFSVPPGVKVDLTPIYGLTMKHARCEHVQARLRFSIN
QUANTITY: IC50

Ask: Query: IC50; subject: O=C1NCc2nc(-c3c(F)cccc3F)cc(Nc3ccc(C(=O)N4CCCC4)cc3)c21
Reply: > 30 µM

---

Target: Cytochrome P450 2C8 (Homo sapiens)
Sequence (P10632 whole entry): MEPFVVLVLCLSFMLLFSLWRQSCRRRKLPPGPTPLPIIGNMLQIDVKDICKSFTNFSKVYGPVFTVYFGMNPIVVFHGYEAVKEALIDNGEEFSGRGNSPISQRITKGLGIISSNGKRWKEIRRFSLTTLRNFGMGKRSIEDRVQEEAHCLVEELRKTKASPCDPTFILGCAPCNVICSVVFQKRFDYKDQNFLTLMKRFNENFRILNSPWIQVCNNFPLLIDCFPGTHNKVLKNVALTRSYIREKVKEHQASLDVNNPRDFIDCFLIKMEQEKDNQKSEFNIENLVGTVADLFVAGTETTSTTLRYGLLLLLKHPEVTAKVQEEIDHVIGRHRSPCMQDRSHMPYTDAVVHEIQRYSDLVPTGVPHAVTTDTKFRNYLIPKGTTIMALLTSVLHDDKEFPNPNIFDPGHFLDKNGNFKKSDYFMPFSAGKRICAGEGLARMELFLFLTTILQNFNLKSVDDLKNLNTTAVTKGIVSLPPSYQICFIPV
pIC50: −log10 of the molar value.
QUANTITY: pIC50

Ask: Query pIC50 on Cytochrome P450 2C8 (Homo sapiens) for O=C1NCc2nc(-c3c(F)cccc3F)cc(Nc3ccc(C(=O)N4CCCC4)cc3)c21 [US10336752, Compound 2]
Reply: < 4.52

---

Molecular target: Cytochrome P450 2E1 (Homo sapiens, UniProt P05181)
Sequence (P05181 whole entry): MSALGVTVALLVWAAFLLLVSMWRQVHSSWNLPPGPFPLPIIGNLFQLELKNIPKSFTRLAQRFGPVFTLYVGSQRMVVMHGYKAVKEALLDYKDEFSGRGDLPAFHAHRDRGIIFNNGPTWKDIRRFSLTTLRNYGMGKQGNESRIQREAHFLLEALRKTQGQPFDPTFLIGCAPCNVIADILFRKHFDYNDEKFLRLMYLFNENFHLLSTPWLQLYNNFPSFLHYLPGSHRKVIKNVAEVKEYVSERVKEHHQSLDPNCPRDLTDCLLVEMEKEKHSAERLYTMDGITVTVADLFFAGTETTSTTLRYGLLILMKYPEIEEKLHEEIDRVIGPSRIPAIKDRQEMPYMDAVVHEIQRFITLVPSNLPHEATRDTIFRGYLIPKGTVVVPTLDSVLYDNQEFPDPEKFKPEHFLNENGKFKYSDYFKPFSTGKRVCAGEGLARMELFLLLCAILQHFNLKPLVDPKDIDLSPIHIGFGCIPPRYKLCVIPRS
Test: Inhibition of CYP2E1 (unknown origin)
pIC50: −log10 of the molar value.
QUANTITY: pIC50

Ask: Query: pIC50; subject: O=C1NCc2nc(-c3c(F)cccc3F)cc(Nc3ccc(C(=O)N4CCCC4)cc3)c21
Reply: < 4.52
